IC50 values by entry
Target: hDHFR (Homo sapiens (Human))
Assay: hDHFR enzyme inhibition assay
Format: biochemical
Settings: Table 5; average of at least three measurements; read-out: IC50 human
Description: hDHFR: The gene for hDHFR was amplified using PCR from cDNA obtained from ATCC. The gene was inserted in a pET41 vector with a C-terminal histidine tag for affinity chromatography. The resulting construct was verified by sequencing. […] Enzyme and inhibitor were allowed to incubate for 5 min before adding dihydrofolate to initiate the reaction. […] IC50 values and their standard deviations were calculated in the presence of varying concentrations of inhibitor near the IC50 concentration. […]
Just so you know, I need the unit written after the number.

> print(dat)
                                   molecule  assayresult
1  CCc1nc(N)nc(N)c1C#CCc1cc(OC)cc(-c2ccncc2)c1        61 nM
2  CCc1nc(N)nc(N)c1C#CCc1cc(OC)cc(-c2ccccc2)c1       140 nM
3  CCc1nc(N)nc(N)c1C#CC(C)c1cc(-c2ccccc2)ccc1OC (stereo not shown)       100 nM
4   CCc1nc(N)nc(N)c1C#CCc1cccc(-c2cncnc2)c1       160 nM
5   CCc1nc(N)nc(N)c1C#CCc1cccc(-c2ccncc2)c1       520 nM

Query :: Entry CCc1nc(N)nc(N)c1C#CC(C)c1cc(OC)cc(-c2ccncc2)c1 (stereo not shown) , system hDHFR (Homo sapiens (Human)): what IC50 was measured?
Result :: 1300 nM

====

Molecular target: ChDHFR-TS (Cryptosporidium hominis)
Sequence (Q27552 1-521): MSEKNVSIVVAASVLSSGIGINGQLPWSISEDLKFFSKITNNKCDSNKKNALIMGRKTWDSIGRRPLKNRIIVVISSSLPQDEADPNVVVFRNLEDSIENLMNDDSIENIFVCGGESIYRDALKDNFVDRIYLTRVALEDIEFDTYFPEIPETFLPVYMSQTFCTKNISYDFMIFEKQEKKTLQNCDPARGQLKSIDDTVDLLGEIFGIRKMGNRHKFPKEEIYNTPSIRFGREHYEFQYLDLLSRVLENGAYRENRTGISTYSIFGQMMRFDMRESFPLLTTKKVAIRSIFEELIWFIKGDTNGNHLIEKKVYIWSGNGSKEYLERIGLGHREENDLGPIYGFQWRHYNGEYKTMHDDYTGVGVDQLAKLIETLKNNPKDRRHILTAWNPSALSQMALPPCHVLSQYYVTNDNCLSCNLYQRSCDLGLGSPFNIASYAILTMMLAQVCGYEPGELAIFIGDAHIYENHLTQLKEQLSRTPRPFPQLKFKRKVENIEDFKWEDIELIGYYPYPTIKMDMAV
Experiment: ChDHFR enzyme inhibition assay
Type: biochemical
Conditions: Table 4; read-out: IC50 (ChDHFR)
Criterion: IC50 strictly less than 2 nM. Met: Y. Not met: N.

Illustrative cases are given below, each with its answer.
> print(dat)
                                   compound  grouplabel
1  COc1cc(-c2c(C)cccc2C)ccc1C(C)C#Cc1c(C)nc(N)nc1N (stereo not drawn) [Compound F26M]           N
2  COc1cc(-c2c(C(C)C)cccc2C(C)C)cc(C(C)C#Cc2c(C)nc(N)nc2N)c1 (stereo not drawn) [Compound D26I]           N
3  COc1cc(-c2c(C(C)C)cccc2C(C)C)ccc1C(C)C#Cc1c(C)nc(N)nc1N (stereo not drawn) [Compound F26I]           N
4  COc1cc(-c2c(C)cccc2C)cc(C(C)C#Cc2c(C)nc(N)nc2N)c1 (stereo not drawn) [Compound D26M]           N

Query :: hey, is IC50 for COc1cc(-c2ccccc2)cc(C(C)C#Cc2c(C)nc(N)nc2N)c1 (racemic) lower than 2 nM or not?
Result :: Y

Query :: # repeat for COc1cc(-c2ccccc2C)cc(C(C)C#Cc2c(C)nc(N)nc2N)c1 (stereo not drawn)
Result :: N

====

Target: hDHFR (Homo sapiens (Human), UniProt P00374)
Sequence (P00374 whole entry): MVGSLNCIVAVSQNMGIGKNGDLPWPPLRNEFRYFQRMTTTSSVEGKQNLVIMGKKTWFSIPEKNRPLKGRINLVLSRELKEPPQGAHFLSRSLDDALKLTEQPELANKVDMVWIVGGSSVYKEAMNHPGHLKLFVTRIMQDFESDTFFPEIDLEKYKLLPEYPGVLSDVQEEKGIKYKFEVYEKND
Assay: hDHFR enzyme inhibition assay
Type: biochemical
Details: Table 4; read-out: IC50 (hDHFR)
Let's look at some compounds and their measured IC50.
Kindly provide the numeric value in µM only, without the unit symbol.

> print(dat)
                                   compound  propertylabel  assayresult
1  COc1cc(-c2c(C(C)C)cccc2C(C)C)ccc1C(C)C#Cc1c(C)nc(N)nc1N (centres unmarked) [Compound F26I]           IC50          4.2

We next turn to a different compound, shown below.
Query :: Requested field: IC50. Item: COc1cc(-c2c(C)cccc2C)ccc1C(C)C#Cc1c(C)nc(N)nc1N (centres unmarked) [Compound F26M]
Result :: 3.37

Values were extracted from patent US8853228B2.
